- target_desc: Peroxisome proliferator-activated receptor gamma (Homo sapiens, UniProt P37231)
- Sequence (P37231 whole entry, the tested form may be a part): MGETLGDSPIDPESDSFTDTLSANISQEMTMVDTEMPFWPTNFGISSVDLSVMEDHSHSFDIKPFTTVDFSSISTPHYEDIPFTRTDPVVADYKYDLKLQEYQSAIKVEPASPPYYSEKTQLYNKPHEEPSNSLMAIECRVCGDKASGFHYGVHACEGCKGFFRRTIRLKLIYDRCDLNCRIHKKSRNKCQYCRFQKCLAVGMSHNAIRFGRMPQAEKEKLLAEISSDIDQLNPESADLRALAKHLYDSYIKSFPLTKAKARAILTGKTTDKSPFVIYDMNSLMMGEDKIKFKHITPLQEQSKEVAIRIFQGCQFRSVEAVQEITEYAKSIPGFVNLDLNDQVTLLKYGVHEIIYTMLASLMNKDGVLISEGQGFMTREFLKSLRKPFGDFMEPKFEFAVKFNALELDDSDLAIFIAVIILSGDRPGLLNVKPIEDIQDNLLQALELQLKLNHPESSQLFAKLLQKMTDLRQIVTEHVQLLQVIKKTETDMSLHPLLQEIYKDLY
- procedure_summary: Agonist activity at human PPARgamma expressed in HEK293 cells assessed as luciferase activity by GAL4 transactivation assay
Each record's EC50 is compared with low end (below 70 nM), middle (70 nM to below 1000 nM), high end (1000 nM or more) to give its class.

QUERY: Place this molecule in its band: Cc1oc(-c2ccccc2)nc1CCOc1cccc(CC2=C(C(=O)O)CCN(c3nccc(C(F)(F)F)n3)C2)c1
RESULT: middle

QUERY: Place this molecule in its band: Cc1oc(-c2ccccc2)nc1CCOc1ccc(C2=C(C(=O)O)CCN(C(=O)OCC(C)C)C2)cc1
RESULT: high end

QUERY: Place this molecule in its band: Cc1oc(-c2ccccc2)nc1CCOc1cccc(CC2CN(C(=O)OCC(C)C)CCC2C(=O)O)c1 (racemic)
RESULT: high end

QUERY: Place this molecule in its band: Cc1oc(-c2ccccc2)nc1CCOc1cccc(C2CN(C(=O)Oc3ccccc3)CCC2CC(=O)O)c1 (racemic)
RESULT: high end

QUERY: Place this molecule in its band: Cc1oc(-c2ccccc2)nc1CCOc1ccc(CC2=C(C(=O)O)CCN(C(=O)OCC(C)C)C2)cc1
RESULT: high end

QUERY: Place this molecule in its band: Cc1oc(-c2ccccc2)nc1CCOc1cccc(C2=C(CC(=O)O)CCN(C(=O)Oc3ccccc3)C2)c1
RESULT: low end

QUERY: Place this molecule in its band: Cc1oc(-c2ccccc2)nc1CCOc1cccc(C2CN(C(=O)OCC(C)C)CCC2CC(=O)O)c1 (racemic)
RESULT: middle

QUERY: Place this molecule in its band: Cc1oc(-c2ccccc2)nc1CCOc1cccc(CC2=CN(c3nccc(C(F)(F)F)n3)CCC2C(=O)O)c1 (racemic)
RESULT: low end

QUERY: Place this molecule in its band: Cc1oc(-c2ccccc2)nc1CCOc1ccc(CCC2=C(C(=O)O)CCN(C(=O)OCC(C)C)C2)cc1
RESULT: middle

QUERY: Place this molecule in its band: Cc1oc(-c2ccccc2)nc1CCOc1cccc(CC2=CN(C(=O)OCc3ccccc3)CCC2C(=O)O)c1 (racemic)
RESULT: low end

###

- target_desc: Peroxisome proliferator-activated receptor alpha (Homo sapiens, UniProt Q07869)
- Sequence (Q07869 whole entry): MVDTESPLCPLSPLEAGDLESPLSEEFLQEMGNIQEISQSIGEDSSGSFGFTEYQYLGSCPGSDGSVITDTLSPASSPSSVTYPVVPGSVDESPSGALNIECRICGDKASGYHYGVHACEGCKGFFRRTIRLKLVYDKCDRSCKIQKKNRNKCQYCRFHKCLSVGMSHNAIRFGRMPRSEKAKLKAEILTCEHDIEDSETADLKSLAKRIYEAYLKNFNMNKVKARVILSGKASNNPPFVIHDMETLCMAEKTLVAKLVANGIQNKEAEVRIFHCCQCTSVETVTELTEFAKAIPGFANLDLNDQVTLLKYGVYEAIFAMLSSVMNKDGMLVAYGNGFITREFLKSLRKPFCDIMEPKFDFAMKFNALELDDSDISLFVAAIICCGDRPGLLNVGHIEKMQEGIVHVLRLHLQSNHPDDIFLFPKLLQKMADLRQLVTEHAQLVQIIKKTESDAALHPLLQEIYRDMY
- procedure_summary: Agonist activity at human PPARalpha expressed in HEK293 cells assessed as luciferase activity by GAL4 transactivation assay
- Format: functional, cell-based
I'd appreciate it if you could supply EC50 values for the items below.

QUERY: GET EC50 | system: Peroxisome proliferator-activated receptor alpha (Homo sapiens, UniProt Q07869) | item: Cc1oc(-c2ccccc2)nc1CCOc1cccc(CC2=C(C(=O)O)CCN(C(=O)OCc3ccccc3)C2)c1
RESULT: 4920 nM

QUERY: GET EC50 | system: Peroxisome proliferator-activated receptor alpha (Homo sapiens, UniProt Q07869) | item: Cc1oc(-c2ccccc2)nc1CCOc1cccc(CC2=C(C(=O)O)CCN(c3nccc(C(F)(F)F)n3)C2)c1
RESULT: 89 nM

QUERY: GET EC50 | system: Peroxisome proliferator-activated receptor alpha (Homo sapiens, UniProt Q07869) | item: Cc1oc(-c2ccccc2)nc1CCOc1cccc(C2=C(CC(=O)O)CCN(C(=O)Oc3ccccc3)C2)c1
RESULT: 4 nM

QUERY: GET EC50 | system: Peroxisome proliferator-activated receptor alpha (Homo sapiens, UniProt Q07869) | item: Cc1oc(-c2ccccc2)nc1CCOc1ccc(C[C@@H]2CN(c3nccc(C(F)(F)F)n3)C[C@@H]2C(=O)O)cc1
RESULT: 165 nM

QUERY: GET EC50 | system: Peroxisome proliferator-activated receptor alpha (Homo sapiens, UniProt Q07869) | item: Cc1oc(-c2ccccc2)nc1CCOc1ccc(CCC2CN(C(=O)OCC(C)C)CCC2C(=O)O)cc1 (racemic)
RESULT: 44 nM

QUERY: GET EC50 | system: Peroxisome proliferator-activated receptor alpha (Homo sapiens, UniProt Q07869) | item: Cc1oc(-c2ccccc2)nc1CCOc1ccc(CC2=C(C(=O)O)CCN(C(=O)OCC(C)C)C2)cc1
RESULT: 28 nM

QUERY: GET EC50 | system: Peroxisome proliferator-activated receptor alpha (Homo sapiens, UniProt Q07869) | item: Cc1oc(-c2ccccc2)nc1CCOc1cccc(C2CN(C(=O)OCC(C)C)CCC2C(=O)O)c1 (racemic)
RESULT: 209 nM

QUERY: GET EC50 | system: Peroxisome proliferator-activated receptor alpha (Homo sapiens, UniProt Q07869) | item: Cc1oc(-c2ccccc2)nc1CCOc1ccc(C2=C(C(=O)O)CCN(C(=O)OCC(C)C)C2)cc1
RESULT: 5570 nM

QUERY: GET EC50 | system: Peroxisome proliferator-activated receptor alpha (Homo sapiens, UniProt Q07869) | item: Cc1oc(-c2ccccc2)nc1CCOc1cccc(C2CN(C(=O)OCC(C)C)CCC2CC(=O)O)c1 (racemic)
RESULT: 580 nM

QUERY: GET EC50 | system: Peroxisome proliferator-activated receptor alpha (Homo sapiens, UniProt Q07869) | item: Cc1oc(-c2ccccc2)nc1CCOc1cccc(CC2=CN(C(=O)OCc3ccccc3)CCC2C(=O)O)c1 (racemic)
RESULT: 16 nM
